Reference source: patent US10710980B2

System: BMP response element (BRE) luciferase reporter in HuH7 cells, BMP6 stimulated
Assay: BMP signaling reporter gene assay
Assay type: cell-based
Settings: Homo sapiens, Huh-7; HuH7 BRE-luciferase, BMP6 100 ng/ml, 5 hours; read-out: MSD BMP RGA IC50
# pIC50 values compiled below
The scale used: pIC50 is minus the common logarithm of the concentration in molar units.

| Smiles Notation | System Under Test | pIC50 |
| --- | --- | --- |
| Nc1ncc(-c2ccc(N3CCCCC3)cc2)cc1C(=O)NC1CCCCC1 | BMP response element (BRE) luciferase reporter in HuH7 cells, BMP6 stimulated | 5.64 |

# return recorded pIC50 for input `Nc1ncc(-c2ccc([C@]34C[C@H]3CN(CCN3CCOCC3)C4)cc2)cc1C(=O)NC12CCC(O)(CC1)CC2`
7.12

Consider the molecule `Nc1ncc(-c2ccc([C@@]34C[C@@H]3CN(C3CCOCC3)C4)cc2)cc1C(=O)NC12CC(CO)(C1)C2` . State its measured pIC50.
7.17

----------
Target: ALK6 (aa168-495) (Homo sapiens (Human), UniProt O00238)
Sequence (O00238 168-495): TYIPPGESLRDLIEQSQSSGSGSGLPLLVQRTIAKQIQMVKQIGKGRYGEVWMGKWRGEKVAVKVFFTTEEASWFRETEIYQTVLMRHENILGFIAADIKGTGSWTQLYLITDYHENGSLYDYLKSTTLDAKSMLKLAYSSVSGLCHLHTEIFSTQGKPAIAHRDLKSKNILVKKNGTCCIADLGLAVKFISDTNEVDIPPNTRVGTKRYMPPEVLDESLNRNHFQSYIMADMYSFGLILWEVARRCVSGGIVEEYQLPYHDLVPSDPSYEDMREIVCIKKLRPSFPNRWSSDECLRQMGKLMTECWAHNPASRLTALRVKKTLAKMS
Measurement Name: pIC50
Interpret pIC50 as the negative base-10 log of the concentration measured in mol/L.

Complete the entry with pIC50 for `Nc1ncc(-c2ccc([C@]34C[C@H]3CN(C3CCOCC3)C4)cc2)cc1C(=O)N[C@H]1CC[C@H](O)CC1`
5.70

Quickly give me recorded pIC50 for `Nc1ncc(-c2ccc([C@@]34C[C@@H]3CN(CCN3CCOCC3)C4)cc2)cc1C(=O)N[C@H]1CC[C@H](O)CC1`
5.60

Return reported pIC50. Input molecule: `Nc1ncc(-c2ccc([C@@]34C[C@@H]3CN(C3CCOCC3)C4)cc2)cc1C(=O)N[C@H]1CC[C@@H](O)CC1`
5.49

Give the reported value of pIC50 for this record: `Nc1ncc(-c2ccc(CN3CC4(CCC4)C3)cc2)cc1C(=O)N[C@H]1CC[C@H](O)CC1`
5.62

----------
Test system: BMP response element (BRE) luciferase reporter in HuH7 cells, BMP6 stimulated
Assay: BMP signaling reporter gene assay
Format: cell-based
Conditions: Homo sapiens, Huh-7; HuH7 BRE-luciferase, BMP6 100 ng/ml, 5 hours; read-out: MSD BMP RGA IC50
Measurement Name: IC50 (nM)
// return numeric value only (unit: nM, not printed)

| Smiles Notation | System Under Test | Measurement Units | IC50 |
| --- | --- | --- | --- |
| Nc1ncc(-c2ccc([C@]34C[C@H]3CN(CC3COC3)C4)cc2)cc1C(=O)N[C@H]1CC[C@H](O)CC1 | BMP response element (BRE) luciferase reporter in HuH7 cells, BMP6 stimulated | nM | 58 |
| C[C@H](c1ccc(-c2cnc(N)c(C(=O)N[C@]3(C)CC[C@@H](O)CC3)c2)cc1)N1CC2(COC2)C1 | BMP response element (BRE) luciferase reporter in HuH7 cells, BMP6 stimulated | nM | 1080 |

Find the measured IC50 of `Nc1ncc(-c2ccc([C@]34C[C@H]3CN(CCF)C4)cc2)cc1C(=O)NC12CCC(O)(CC1)CC2` and report it.
130

Read off the recorded IC50 for `Nc1ncc(-c2ccc([C@]34C[C@H]3CN(CCCN3CCOCC3)C4)cc2)cc1C(=O)N[C@H]1CC[C@H](O)CC1`
120
